- System: HDAC enzyme activity in BJAB cells
- procedure_text: Cell-based HDAC fluorescence activity assay, BJAB
- test_conditions: Homo sapiens, 24 h, read-out: IC50 (HDAC enzyme activity)
observed_property: IC50 (µM)
# output: bare number, implied unit µM

*Q* Recorded IC50 for O=C(C=Cc1ccc2c(c1)CCN2S(=O)(=O)c1ccccc1)NO , please?
*A* 4.54

---

- tested_system: Akt (Homo sapiens, UniProt P31749)
- Sequence (P31749 whole entry): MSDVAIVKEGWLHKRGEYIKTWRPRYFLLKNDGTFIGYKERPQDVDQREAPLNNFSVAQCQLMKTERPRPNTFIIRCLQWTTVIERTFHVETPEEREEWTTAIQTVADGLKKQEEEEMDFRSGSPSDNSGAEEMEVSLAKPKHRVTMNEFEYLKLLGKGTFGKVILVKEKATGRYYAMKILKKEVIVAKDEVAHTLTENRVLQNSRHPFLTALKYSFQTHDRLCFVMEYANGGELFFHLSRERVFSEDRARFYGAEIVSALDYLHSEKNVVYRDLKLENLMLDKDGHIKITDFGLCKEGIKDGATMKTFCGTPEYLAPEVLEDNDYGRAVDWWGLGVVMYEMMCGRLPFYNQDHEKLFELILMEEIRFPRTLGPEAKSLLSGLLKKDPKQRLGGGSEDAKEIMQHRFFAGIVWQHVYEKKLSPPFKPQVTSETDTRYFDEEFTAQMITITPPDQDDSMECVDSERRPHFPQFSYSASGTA
observed_property: pIC50
Remember the convention: pIC50 equals -log10 of concentration in molar.

*Q* # value lookup — system Akt (Homo sapiens, UniProt P31749), readout pIC50, item O=C(C=Cc1ccc2c(c1)CCN2S(=O)(=O)c1ccccc1)NO
*A* 5.24

---

- System: HUVEC cells
- procedure_text: MTT cell viability assay, normal HUVEC cells
- Format: cell-based
- test_conditions: Homo sapiens, 24 h, read-out: IC50 (cell viability, toxicity)
observed_property: IC50

*Q* Recorded IC50 for O=C(C=Cc1ccc2c(c1)CCN2S(=O)(=O)c1ccccc1)NO , please?
*A* > 30 µM

---

- System: HDAC enzyme activity in Ramos cells
- procedure_text: Cell-based HDAC fluorescence activity assay, Ramos
- test_conditions: Homo sapiens, 24 h, read-out: IC50 (HDAC enzyme activity)
observed_property: IC50 (nM)
# output: bare number, implied unit nM

*Q* Recorded IC50 for O=C(C=Cc1ccc2c(c1)CCN2S(=O)(=O)c1ccccc1)NO , please?
*A* 2880

---

- Tested on: BJAB cells
- procedure_text: MTT cell viability assay, BJAB B-cell lymphoma cells
- Format: cell-based
- test_conditions: Homo sapiens, 24 h, mean ± SEM, read-out: IC50 (growth inhibition)
observed_property: IC50 (µM)
# output: bare number, implied unit µM

*Q* Recorded IC50 for O=C(C=Cc1ccc2c(c1)CCN2S(=O)(=O)c1ccccc1)NO , please?
*A* 1.45
